# assayOverview: Phase I study, pharmacokinetics following oral dosing
# Assay type: in vivo, human
# conditionInfo: human, plasma; 20 mg/twice daily oral; Table 2, n=28; read-out: T1/2 (converted)
measurementKind: half-life (h)
Answer in h, number only, no unit symbol.

The reported half-life of the compound CCS(=O)(=O)N1CCN(c2ccc(Nc3ncc(C(N)=O)c(NC4CC4)n3)cc2)CC1 was 8.4

* * *

# assayOverview: Phase I study, pharmacokinetics following oral dosing
# Assay type: in vivo, human
# conditionInfo: human, plasma, oral, 45 mg/day; outlier removed from the group; read-out: steady state Cmax of PK outlier
measurementKind: Cmax (nM)
Answer in nM, number only, no unit symbol.

The reported Cmax of the compound CCS(=O)(=O)N1CCN(c2ccc(Nc3ncc(C(N)=O)c(NC4CC4)n3)cc2)CC1 was 150

* * *

# assayOverview: Phase I study, pharmacokinetics following oral dosing
# Format: in vivo, human
# conditionInfo: human, plasma; 40 mg/day oral; Table 2, n=28
measurementKind: AUC (µM·h)
Answer in µM·h, number only, no unit symbol.

The reported AUC of the molecule CCS(=O)(=O)N1CCN(c2ccc(Nc3ncc(C(N)=O)c(NC4CC4)n3)cc2)CC1 was 27.3

* * *

# Tested on: DHL10
# assayOverview: Combination synergy, Cell Titer Glo, 72 hours
# Format: cell-based
measurementKind: pIC50
Conceptually, pIC50 converts a concentration in mol/L into minus its log10.

>>> measurednumber("C=CC(=O)N1CCC[C@@H](n2nc(-c3ccc(Oc4ccccc4)cc3)c3c(N)ncnc32)C1 [Ibrutinib, reference compound]")
5.72

Then this molecule:
The reported pIC50 of the molecule CC1(C)CCC(CN2CCN(c3ccc(C(=O)NS(=O)(=O)c4ccc(NCC5CCOCC5)c([N+](=O)[O-])c4)c(Oc4cnc5[nH]ccc5c4)c3)CC2)=C(c2ccc(Cl)cc2)C1 [ABT-199, reference compound] was 5.43

* * *

# assayOverview: Phase I study, pharmacokinetics following oral dosing
# Type: in vivo, human
# conditionInfo: human, plasma, oral, 40-100 mg QD doses; read-out: average steady state (SS) Cmax
measurementKind: Cmax
Returns: string containing the number followed by the unit.

The reported Cmax of the molecule CCS(=O)(=O)N1CCN(c2ccc(Nc3ncc(C(N)=O)c(NC4CC4)n3)cc2)CC1 [Cerdulatinib] was 1630 nM

* * *

# assayOverview: Phase I study, pharmacokinetics following oral dosing
# Assay type: in vivo, human
# conditionInfo: human, plasma, po, 30 mg/day, 30 mg/day oral; Table 2, n=28; read-out: SS Cmax
measurementKind: Cmax (nM)
Answer in nM, number only, no unit symbol.

The reported Cmax of the molecule CCS(=O)(=O)N1CCN(c2ccc(Nc3ncc(C(N)=O)c(NC4CC4)n3)cc2)CC1 [Cerdulatinib] was 630

* * *

# System: LY1
# assayOverview: DLBCL cell line viability, CellTiter Glo, ten-point curve
# Assay type: cell-based
# conditionInfo: read-out: IC50 of Kinase Inhibitor in Cell Titer Glo Assay
measurementKind: IC50

>>> result("CCS(=O)(=O)N1CCN(c2ccc(Nc3ncc(C(N)=O)c(NC4CC4)n3)cc2)CC1")
"4400 nM"
>>> result("CC[C@H](Nc1ncnc2[nH]cnc12)c1nc2cccc(F)c2c(=O)n1-c1ccccc1")
"4900 nM"
>>> result("COc1cccc2c1C(=O)c1c(O)c3c(c(O)c1C2=O)C[C@@](O)(C(=O)CO)C[C@@H]3O[C@H]1C[C@H](N)[C@H](O)[C@H](C)O1")
"190 nM"

Then this molecule:
The reported IC50 of the molecule C[C@H](Nc1ncnc2nc[nH]c12)c1cc2cccc(Cl)c2c(=O)n1-c1ccccc1 was 1300 nM

* * *

# assayOverview: Phase I study, pharmacokinetics following oral dosing
# Format: in vivo, human
# conditionInfo: human, plasma, oral; 20 mg/twice daily; Table 3, n=43
measurementKind: AUC (µM·h)
Answer in µM·h, number only, no unit symbol.

The reported AUC of the molecule CCS(=O)(=O)N1CCN(c2ccc(Nc3ncc(C(N)=O)c(NC4CC4)n3)cc2)CC1 was 6.2

* * *

# assayOverview: Phase I study, pharmacokinetics following oral dosing
# Format: in vivo, human
# conditionInfo: human, plasma, oral; 100 mg/day (one patient); Table 3
measurementKind: AUC
Returns: string containing the number followed by the unit.

The reported AUC of the molecule CCS(=O)(=O)N1CCN(c2ccc(Nc3ncc(C(N)=O)c(NC4CC4)n3)cc2)CC1 was 16.3 µM·h

* * *

# assayOverview: Phase I study, pharmacokinetics following oral dosing
# Assay type: in vivo, human
# conditionInfo: human, plasma; 50 mg/day oral; Table 2, n=28
measurementKind: AUC
Returns: string containing the number followed by the unit.

The reported AUC of the compound CCS(=O)(=O)N1CCN(c2ccc(Nc3ncc(C(N)=O)c(NC4CC4)n3)cc2)CC1 was 31.4 µM·h

* * *

# assayOverview: Phase I study, pharmacokinetics following oral dosing
# Assay type: in vivo, human
# conditionInfo: human, plasma, oral, 65 mg/day; Table 3, n=43; read-out: SS Cmax
measurementKind: Cmax
Returns: string containing the number followed by the unit.

The reported Cmax of the molecule CCS(=O)(=O)N1CCN(c2ccc(Nc3ncc(C(N)=O)c(NC4CC4)n3)cc2)CC1 [Cerdulatinib] was 1.67 µM

* * *

# assayOverview: Phase I study, pharmacokinetics following oral dosing
# Assay type: in vivo, human
# conditionInfo: human, plasma, oral; 45 mg BID; n=20
measurementKind: AUC (µM·h)
Answer in µM·h, number only, no unit symbol.

The reported AUC of the compound CCS(=O)(=O)N1CCN(c2ccc(Nc3ncc(C(N)=O)c(NC4CC4)n3)cc2)CC1 [Cerdulatinib] was 33.3

* * *

# assayOverview: Phase I study, pharmacokinetics following oral dosing
# Type: in vivo, human
# conditionInfo: human, plasma, oral; 15 mg/twice daily; Table 3, n=43
measurementKind: AUC (µM·h)
Answer in µM·h, number only, no unit symbol.

The reported AUC of the molecule CCS(=O)(=O)N1CCN(c2ccc(Nc3ncc(C(N)=O)c(NC4CC4)n3)cc2)CC1 [Cerdulatinib] was 4.7

* * *

# assayOverview: Phase I study, pharmacokinetics following oral dosing
# Type: in vivo, human
# conditionInfo: human, plasma; 15 mg/day oral; Table 2, n=28
# Procedure: A first-in-human study of cerdulatinib in patients with relapsed/refractory CLL/SLL or B-cell non-Hodgkin's lymphoma (NHL) was carried out. […] Patients received a single dose on day 1 for 72 hour PK evaluation. Continuous dosing was initiated on day 4. […] Pharmacokinetics (“PK”), pharmacodynamics (“PD”), and safety were monitored. Response was assessed by standard criteria. […] Serum markers of tumor burden, including CCL3, CCL4, and other markers of inflammation (02M and CRP), were also being measured.
measurementKind: AUC (µM·h)
Answer in µM·h, number only, no unit symbol.

The reported AUC of the molecule CCS(=O)(=O)N1CCN(c2ccc(Nc3ncc(C(N)=O)c(NC4CC4)n3)cc2)CC1 was 4.5

* * *

# assayOverview: Phase I study, pharmacokinetics following oral dosing
# Assay type: in vivo, human
# conditionInfo: human, plasma, oral; 15 mg/day; Table 3, n=43; read-out: T1/2 (converted)
measurementKind: half-life (h)
Answer in h, number only, no unit symbol.

The reported half-life of the compound CCS(=O)(=O)N1CCN(c2ccc(Nc3ncc(C(N)=O)c(NC4CC4)n3)cc2)CC1 was 11.5

* * *

# Test system: U2932
# assayOverview: Combination synergy, Cell Titer Glo, 72 hours
# Type: cell-based
# conditionInfo: Homo sapiens, U2932, 72 h; read-out: IC50
Measured IC50, listed per entry.
Answer in µM, number only, no unit symbol.

>>> measurednumber("CC1(C)CCC(CN2CCN(c3ccc(C(=O)NS(=O)(=O)c4ccc(NCC5CCOCC5)c([N+](=O)[O-])c4)c(Oc4cnc5[nH]ccc5c4)c3)CC2)=C(c2ccc(Cl)cc2)C1 [ABT-199, reference compound]")
0.49

Then this compound:
The reported IC50 of the compound CCS(=O)(=O)N1CCN(c2ccc(Nc3ncc(C(N)=O)c(NC4CC4)n3)cc2)CC1 [Cerdulatinib] was 3.73

* * *

# Test system: Lyl (OCI-Lyl)
# assayOverview: Combination synergy, Cell Titer Glo, 72 hours
# Type: cell-based
Measured IC50, listed per entry.
Answer in nM, number only, no unit symbol.

Below: 2 molecules and their reported IC50.
>>> measurednumber("CCS(=O)(=O)N1CCN(c2ccc(Nc3ncc(C(N)=O)c(NC4CC4)n3)cc2)CC1")
4300
>>> measurednumber("C=CC(=O)N1CCC[C@@H](n2nc(-c3ccc(Oc4ccccc4)cc3)c3c(N)ncnc32)C1 [Ibrutinib, reference compound]")
750

Tested on Lyl (OCI-Lyl): CC1(C)CCC(CN2CCN(c3ccc(C(=O)NS(=O)(=O)c4ccc(NCC5CCOCC5)c([N+](=O)[O-])c4)c(Oc4cnc5[nH]ccc5c4)c3)CC2)=C(c2ccc(Cl)cc2)C1 [ABT-199, reference compound] . Observed IC50: 750
